- Method: in vitro
- Experimental Setup: human
- Method: Metabolic stability assay Hepatic microsomal stability assays were conducted by Charles River Laboratories. Assays were performed in duplicate. The stability of the test compound (1 µM) was measured following incubation at 37 °C with […] (0.5 mg protein/mL) in the presence of the cofactor, NADPH. Incubates were prepared in duplicate, with aliquots removed at 0, 5, 10, 20 and 40 minutes and reactions terminated, and the compound was extracted by the addition of solvent. […]
Property: Half-life (min) n=2; scope: individual compounds
Output spec: scalar in min, unitless text.

A selection of reference data follows.
- Cc1ncc2n1-c1ccc(Cl)cc1C(c1ccccc1F)=NC2 [Midazolam, reference compound]: 5
- CC[C@@H]1NC(=O)[C@H]([C@H](O)[C@H](C)CC/C=C\F)N(C)C(=O)[C@H](C(C)C)N(C)C(=O)[C@H](CC(C)C)N(C)C(=O)[C@H](CC(C)C)N(C)C(=O)[C@@H](C)NC(=O)[C@H](C)NC(=O)[C@H](CC(C)C)N(C)C(=O)[C@H](C(C)C)NC(=O)[C@H](CC(C)C)N(C)C(=O)CN(C)C1=O: 26
- [2H]C([2H])([2H])/C=C/CC[C@@H](C)[C@@H](O)[C@H]1C(=O)N[C@@H](CC)C(=O)N(C)CC(=O)N(C)[C@@H](CC(C)C)C(=O)N[C@@H](C(C)C)C(=O)N(C)[C@@H](CC(C)C)C(=O)N[C@@H](C)C(=O)N[C@H](C)C(=O)N(C)[C@@H](CC(C)C)C(=O)N(C)[C@@H](CC(C)C)C(=O)N(C)[C@@H](C(C)C)C(=O)N1C: 31

Recorded Half-life (min) n=2 for COc1ccc2c(c1)[C@]13CCCC[C@@H]1[C@H](C2)N(C)CC3 [Dextromethorphan, reference compound] , please? 47

Now consider C/C=C/CC[C@@H](C)[C@@H](O)[C@H]1C(=O)N[C@@H](CC)C(=O)N(C)CC(=O)N(C)[C@@H](CC(C)C)C(=O)N[C@@H](C(C)C)C(=O)N(C)[C@@H](CC(C)C)C(=O)N[C@@H](C)C(=O)N[C@H](C)C(=O)N(C)[C@@H](CC(C)C)C(=O)N(C)[C@@H](CC(C)C)C(=O)N(C)[C@@H](C(C)C)C(=O)N1C . 30

###

- Method: in vitro
- Experimental Setup: human
Property: Clint (uL/min/mg protn) n=2; scope: individual compounds
Output spec: scalar in uL/min/mg protn, unitless text.

* CC[C@@H]1NC(=O)[C@H]([C@H](O)[C@H](C)CC/C=C\F)N(C)C(=O)[C@H](C(C)C)N(C)C(=O)[C@H](CC(C)C)N(C)C(=O)[C@H](CC(C)C)N(C)C(=O)[C@@H](C)NC(=O)[C@H](C)NC(=O)[C@H](CC(C)C)N(C)C(=O)[C@H](C(C)C)NC(=O)[C@H](CC(C)C)N(C)C(=O)CN(C)C1=O | 53
* C/C=C/CC[C@@H](C)[C@@H](O)[C@H]1C(=O)N[C@@H](CC)C(=O)N(C)CC(=O)N(C)[C@@H](CC(C)C)C(=O)N[C@@H](C(C)C)C(=O)N(C)[C@@H](CC(C)C)C(=O)N[C@@H](C)C(=O)N[C@H](C)C(=O)N(C)[C@@H](CC(C)C)C(=O)N(C)[C@@H](CC(C)C)C(=O)N(C)[C@@H](C(C)C)C(=O)N1C | 46
* C/C=C/CCC[C@@H](C)[C@@H](O)[C@H]1C(=O)N[C@@H](CC)C(=O)N(C)CC(=O)N(C)[C@@H](CC(C)C)C(=O)N[C@@H](C(C)C)C(=O)N(C)[C@@H](CC(C)C)C(=O)N[C@@H](C)C(=O)N[C@H](C)C(=O)N(C)[C@@H](CC(C)C)C(=O)N(C)[C@@H](CC(C)C)C(=O)N(C)[C@@H](C(C)C)C(=O)N1C | 78
* C=CCCC[C@@H](C)[C@@H](O)[C@H]1C(=O)N[C@@H](CC)C(=O)N(C)CC(=O)N(C)[C@@H](CC(C)C)C(=O)N[C@@H](C(C)C)C(=O)N(C)[C@@H](CC(C)C)C(=O)N[C@@H](C)C(=O)N[C@H](C)C(=O)N(C)[C@@H](CC(C)C)C(=O)N(C)[C@@H](CC(C)C)C(=O)N(C)[C@@H](C(C)C)C(=O)N1C | 65

Field: next compound
Recorded Clint (uL/min/mg protn) n=2 for [2H]C([2H])([2H])/C=C/CC[C@@H](C)[C@@H](O)[C@H]1C(=O)N[C@@H](CC)C(=O)N(C)CC(=O)N(C)[C@@H](CC(C)C)C(=O)N[C@@H](C(C)C)C(=O)N(C)[C@@H](CC(C)C)C(=O)N[C@@H](C)C(=O)N[C@H](C)C(=O)N(C)[C@@H](CC(C)C)C(=O)N(C)[C@@H](CC(C)C)C(=O)N(C)[C@@H](C(C)C)C(=O)N1C , please? 45

###

- Method: in vitro
- Experimental Setup: human
Reported Endpoint: Half-life (min) n=1
Output spec: scalar in min, unitless text.

A selection of reference data follows.
• C/C=C/CCC[C@@H](C)[C@@H](O)[C@H]1C(=O)N[C@@H](CC)C(=O)N(C)CC(=O)N(C)[C@@H](CC(C)C)C(=O)N[C@@H](C(C)C)C(=O)N(C)[C@@H](CC(C)C)C(=O)N[C@@H](C)C(=O)N[C@H](C)C(=O)N(C)[C@@H](CC(C)C)C(=O)N(C)[C@@H](CC(C)C)C(=O)N(C)[C@@H](C(C)C)C(=O)N1C = 17
• COc1ccc2c(c1)[C@]13CCCC[C@@H]1[C@H](C2)N(C)CC3 [Dextromethorphan, reference compound] = 49

Field: next compound
Recorded Half-life (min) n=1 for Cc1ncc2n1-c1ccc(Cl)cc1C(c1ccccc1F)=NC2 [Midazolam, reference compound] , please? 5
